// values below are reported normalized growth
Assay: chemical genetic growth profiling, strain panel (AID 1159580);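 also: tested at 20 µM; growth read once vehicle control cultures reached saturation at 30 °C; 1 = growth at the plate median or of vehicle wells; lower values mean less growth of the strain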
Details: S. cerevisiae deletion strains, growth OD, locus YML016C, strain PPZ1, hits give low values
The campaign covered roughly 5,500 compounds. About 2,000 (36%) were called active. Inconclusive results (about 18%) are left out. The list shows a part of the results.
// no unit string in output, number only

Reference set, count: 4
| Molecule | normalized growth |
| --- | --- |
| CCOC(=O)NNc1nncc2ccccc12 | 0.991 |
| CC(Cc1cccc(C(F)(F)F)c1)NCCOC(=O)c1ccccc1 (stereo unspecified) | 0.989 |
| CC(C)CCCC(C)C1CCC2C3CC[C@H]4C[C@@H](O)CC[C@]4(C)C3CC[C@]12C (stereo partly specified) | 1.01 |
| CC(=O)Oc1c(Cl)c(C)c2c(c1Cl)OC(=O)c1c(C)c(Cl)c(OC(C)=O)c(Cl)c1O2 | 1.02 |

Incoming: Fill in normalized growth for record COC(=O)c1c(C)c2c(c(C)c1O)OC(=O)c1c(C)c(Cl)c(O)c(Cl)c1O2
Outgoing: 1.01

Incoming: Fill in normalized growth for record CC(C)c1ccc2c(c1)CCC1C(C)(C(N)=O)CCCC21C (stereo unspecified)
Outgoing: 0.977

Incoming: Fill in normalized growth for record CC(C)c1ccc2c(c1)CCC1[C@](C)(CN)CCC[C@]21C (stereo partly specified)
Outgoing: 0.513

Incoming: Fill in normalized growth for record O=C(NCO)c1cccnc1
Outgoing: 0.998

Incoming: Fill in normalized growth for record COc1c(C)c2c(c(C)c1Cl)Oc1c(Cl)c(OC)c(Cl)c(C)c1C(=O)O2
Outgoing: 1.01

Incoming: Fill in normalized growth for record CNCCCC12CCC(c3ccccc31)c1ccccc12
Outgoing: 0.986

Incoming: Fill in normalized growth for record CC(C)CCCC(C)[C@H]1CCC2C3CC=C4CC(=O)CC[C@]4(C)C3CC[C@@]21C (stereo partly specified)
Outgoing: 0.996

Incoming: Fill in normalized growth for record CC(C)=CCc1c2c(c3occ(-c4ccc(O)c(O)c4)c(=O)c3c1O)C=CC(C)(C)O2
Outgoing: 0.174

Incoming: Fill in normalized growth for record CC(C)CCCC(C)C1CCC2C3C[C@@H](O)[C@@]4(O)C[C@@H](O)CC[C@]4(C)C3CC[C@]12C (stereo partly specified)
Outgoing: 1.05

Incoming: Fill in normalized growth for record CC12CCC(=O)C=C1CCC1C2[C@@H](O)CC2(C)C1CC[C@]2(O)C(=O)COP(=O)(O)O (stereo partly specified)
Outgoing: 1

Incoming: Fill in normalized growth for record CC(C)CC(NC(=O)OCC1c2ccccc2-c2ccccc21)C(=O)O (stereo unspecified)
Outgoing: 0.995

----------
Assay: chemical genetic growth profiling, strain panel (AID 1159580)
Conditions: S. cerevisiae deletion strains, growth OD, locus YOL147C, strain pex11, hits give low values
The whole screen tested about 5,500 compounds, of which about 2,000 (36%) were called active. Inconclusive results (about 18%) are left out. This is one part of the list.
Measured Parameter: normalized growth
// no unit string in output, number only

| Compound | normalized growth |
| --- | --- |
| COC(=O)c1c(C)c2c(c(C)c1O)OC(=O)c1c(C)c(Cl)c(O)c(Cl)c1O2 | 1 |
| O=C(OCc1ccccc1)c1ccccc1 | 0.974 |
| NCC(=O)c1ccccc1 | 0.993 |
| COC(=O)c1c(OC)cc2c(c1C)Oc1c(Cl)c(O)c(Cl)c(C)c1C(=O)O2 | 0.946 |
| O=C1NC(O)=NC1(c1ccccc1)c1ccccc1 | 1.01 |

Next compound, please.
Incoming: Fill in normalized growth for record COc1cc(C/C=C/c2ccccc2)c(OC)cc1O
Outgoing: 0.963

----------
Assay: chemical genetic growth profiling, strain panel (AID 1159580)
Conditions: S. cerevisiae deletion strains, growth OD, locus YKL193C, strain SDS22
Among all 5,500 compounds or so, about 2,000 (36%) were called active. About 18% were inconclusive and are not listed. Rule as the data show it: active = normalized growth mostly below about 0.91 (no sharp cut-off); inconclusive = no clear call, values can overlap the other calls; inactive = mostly above about 0.92. This is one part of the list.
Permitted responses: label 1 (active), label 0 (inactive)

Examples with answers:
| Compound | Label Value |
| --- | --- |
| Clc1ccc(SCc2ccsc2-c2ncns2)cc1 | label 0 |
| O=[N+]([O-])c1cccc(C2CC(c3ccccc3)=Nc3ccccc3S2)c1 (stereo unspecified) | label 0 |
| Cc1c(C)c(C)c(C(=O)c2ccc(N=Cc3cc(Cl)cc(Cl)c3O)cc2)c(C)c1C | label 0 |
| CC(=O)c1ccc(Cl)c(N=Cc2cc(Br)cc(Br)c2O)c1 | label 1 |

Incoming: What is the recorded call for this compound in the test? O=C(Nc1ccc(F)cc1F)c1cc(Cl)c(-n2cccc2)c(Cl)c1
Outgoing: label 0

Incoming: What is the recorded call for this compound in the test? Cc1ccc2nc(-c3ccc4c(c3)OCCO4)cn2c1
Outgoing: label 0

Incoming: What is the recorded call for this compound in the test? CSc1n[nH]c(-c2cc(C(C)(C)C)oc2C)c1C#N
Outgoing: label 0

Incoming: What is the recorded call for this compound in the test? COc1c(Br)csc1C(=O)O/N=C(/N)c1cc(C(F)(F)F)cc(C(F)(F)F)c1
Outgoing: label 0

Incoming: What is the recorded call for this compound in the test? CCOC(=O)/C(C#N)=C(\Nc1ccc(C(=O)OCC)cc1)SC
Outgoing: label 0

Incoming: What is the recorded call for this compound in the test? O=S(=O)(Nc1ccccc1Oc1ccccc1)c1ccc(-c2ccno2)s1
Outgoing: label 0

Incoming: What is the recorded call for this compound in the test? Cc1ccc(-n2cccc2)c(NS(=O)(=O)c2ccc(-c3ccno3)s2)c1
Outgoing: label 0

----------
Test: chemical genetic growth profiling, strain panel (AID 1159580);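 also: tested at 20 µM; growth read once vehicle control cultures reached saturation at 30 °C; 1 = growth at the plate median or of vehicle wells; lower values mean less growth of the strain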
Conditions: S. cerevisiae deletion strains, growth OD, locus YGL248W, strain PDE1
The whole screen tested about 5,500 compounds, of which about 2,000 (36%) were called active. Another 18% or so got no clear call; they are omitted. No stated cut-off is given here; in the data, active means normalized growth mostly below about 0.91 (no sharp cut-off); inconclusive means no clear call, values can overlap the other calls; inactive means mostly above about 0.92. Some of the results follow.
Permitted responses: active, inactive

Incoming: What is the recorded call for this compound in the test? CC(C)c1ccc2c(c1)CCC1C(C)(C(N)=O)CCCC21C (centres undefined)
Outgoing: inactive

Incoming: What is the recorded call for this compound in the test? Cc1ccc2c(c1)C1(C)CCCC(C)(C(=O)O)C1CC2 (centres undefined)
Outgoing: inactive

Incoming: What is the recorded call for this compound in the test? CC(C)c1ccc2c(c1)CCC1[C@](C)(CN)CCC[C@]21C (some centres undefined)
Outgoing: active

Incoming: What is the recorded call for this compound in the test? CO[C@H]1CC(O[C@@H]2/C(C)=C/C[C@@H]3C[C@@H](C[C@]4(CC[C@H](C)[C@@H](C5CCCCC5)O4)O3)OC(=O)[C@@H]3C=C(C)/C(=N\O)[C@H]4OC/C(=C\C=C\[C@@H]2C)[C@]43O)O[C@@H](C)C1O (some centres undefined)
Outgoing: inactive

----------
Test: chemical genetic growth profiling, strain panel (AID 1159580);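 also: tested at 20 µM; growth read once vehicle control cultures reached saturation at 30 °C; 1 = growth at the plate median or of vehicle wells; lower values mean less growth of the strain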
Details: S. cerevisiae deletion strains, growth OD, locus YDR502C, strain sam2, hits give low values
In all, about 5,500 compounds went through this assay and about 2,000 (36%) were called active. Roughly 18% stayed inconclusive and do not appear here. The list shows a part of the results.
Quick rule for you: normalized growth under 1 gets fulfilled, anything else gets not fulfilled.

Examples with answers:
| Molecule Smiles | Label Value |
| --- | --- |
| CC(=O)Oc1cccc(O)c1 | not fulfilled |
| CCN(CC)CCOC(=O)C1(C2CCCCC2)CCCCC1 | fulfilled |

Consider the record given below.
Incoming: is_below(normalized growth, 1) for CC(C)=CCc1c2c(c3occ(-c4ccc(O)cc4)c(=O)c3c1O)C=CC(C)(C)O2 ?
Outgoing: fulfilled

----------
Assay: chemical genetic growth profiling, strain panel (AID 1159580);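 also: tested at 20 µM; growth read once vehicle control cultures reached saturation at 30 °C; 1 = growth at the plate median or of vehicle wells; lower values mean less growth of the strain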
Conditions: S. cerevisiae deletion strains, growth OD, locus YDR195W, strain ref2
Hit rate of the full screen: of about 5,500 compounds, about 2,000 (36%) were called active. Inconclusive results (about 18%) are left out. Rule as the data show it: active = normalized growth mostly below about 0.91 (no sharp cut-off); inconclusive = no clear call, values can overlap the other calls; inactive = mostly above about 0.92. The list shows a part of the results.
Permitted responses: class 1 = active, class 0 = inactive

| Molecule | Label Value |
| --- | --- |
| O=C(CC(=O)c1ccccc1)c1ccccc1 | class 1 |
| CC(CCC(=O)O)[C@H]1CCC2C3C(=O)C[C@@H]4CC(=O)CC[C@]4(C)C3CC(=O)[C@@]21C (stereo partly drawn) | class 0 |
| O=C(O)C1=CCCNC1 | class 0 |
| CCN(CC)CCOCCOC(=O)C1(c2ccccc2)CCCC1 | class 0 |
| CC(=O)OCC(=O)[C@@]1(O)[C@H](C)CC2C3CCC4=CC(=O)C=C[C@]4(C)[C@@]3(F)[C@@H](O)C[C@@]21C (stereo partly drawn) | class 0 |
| CC(C)CCCC(C)C1CCC2C3C[C@@H](O)[C@@]4(O)C[C@@H](O)CC[C@]4(C)C3CC[C@]12C (stereo partly drawn) | class 0 |
| NC(=O)c1cccnc1 | class 0 |
| Nc1ccc(C(=O)O)cc1 | class 0 |

Incoming: What is the recorded call for this molecule in the test? CN(C)CCCN1c2ccccc2Sc2ccc(C(F)(F)F)cc21
Outgoing: class 1

Incoming: What is the recorded call for this molecule in the test? CC(C)=CCCC(C)[C@@H]1CC[C@]2(C)C3=C(CC[C@@]12C)C1(C)CC[C@H](O)C(C)(C)C1CC3 (stereo partly drawn)
Outgoing: class 0

Incoming: What is the recorded call for this molecule in the test? C/C1=C/CC(C)(C)/C=C/C/C(C)=C/CC1
Outgoing: class 0

Incoming: What is the recorded call for this molecule in the test? CCCOc1ccc2nc(NC(=O)OC)[nH]c2c1
Outgoing: class 0

Incoming: What is the recorded call for this molecule in the test? CC(C)NCC(O)COc1ccc(COCCOC(C)C)cc1 (stereo not drawn)
Outgoing: class 0
